For each entry below, report its IC50 value.
Test: In vitro cytotoxicity assay
Format: cell-based
Conditions: African green monkey, Vero cells, Vero IC50 cytotoxicity, MTT

Sample `CN(C)c1ccc(/C=C/C=NN2C(S)=NCN2/C=C/c2ccccc2)cc1` — what was its IC50?
229 µg/mL

Can you share its IC50? I mean this compound: `Oc1ccc(C2=NN3C(=NCN3/C=C/c3ccccc3)S2)cc1O`
270 µg/mL

What value of IC50 has been reported for the following compound? `SC1=NCN(/C=C/c2ccccc2)N1N=Cc1ccc(Br)cc1`
241 µg/mL

For each of the compounds below, note its IC50.
1. COc1cc(C=NN2C(S)=NCN2/C=C/c2ccccc2)ccc1O
2. Nc1ccc(/C=C/C(=O)NNc2ccc([N+](=O)[O-])cc2[N+](=O)[O-])cc1
3. Cc1cccc(C2=NN3C(=NCN3/C=C/c3ccccc3)S2)c1
4. CC(=O)OCC(CCn1cnc2cnc(N)nc21)COC(C)=O [FMCV, Famciclovir, reference compound]

1: 295 µg/mL; 2: 285 µg/mL; 3: 218 µg/mL; 4: 270 µg/mL

State recorded IC50 for all listed compounds.
1. CC(C)=CCc1c(O)cc(O)c2c1O[C@H](c1ccccc1)CC2=O [Glabranin, reference compound]
2. NC(=S)NNC(=O)/C=C/c1ccc(N)cc1
3. O=[N+]([O-])c1ccc(C=NN2C(S)=NCN2/C=C/c2ccccc2)cc1

252 µg/mL
254 µg/mL
235 µg/mL

----------
Test system: third stage instar larvae of Aedes aegypti
Experiment: Larvicidal bioassay
Assay type: in vivo
Details: Aedes aegypti, 72 h, 72 h exposure, log probit analysis
Please provide measured LC50 for the entries that follow.
One number for each entry, in µg/mL.

// solved cases for LC50 follow
Given the entry SC1=NCN(/C=C/c2ccccc2)N1N=Cc1ccc(Br)cc1 [CA 10] , report its measured LC50.
50.3

Tell me the measured LC50 of Cc1cccc(C2=NN3C(=NCN3/C=C/c3ccccc3)S2)c1 [CATD 2] , please.
86.6

Any idea what its LC50 is? The molecule is CC(=O)OCC(CCn1cnc2cnc(N)nc21)COC(C)=O [FMCV, Famciclovir, reference compound]
139

// next entry
Entry under review: CC(C)=CCc1c(O)cc(O)c2c1O[C@H](c1ccccc1)CC2=O [Glabranin, reference compound] . Reported LC50?
140

Taken from paper PMC8961603.
